Consider the following compounds; for each one, report its pIC50.
Test system: production of amyloid beta protein Aβ(1-42) in human WT-APP overexpressing CHO cells
Details: read-out: Aβ 42 IC50; Geometric mean of 2-8 determinations; human WT-APP overexpressing CHO cells
Where a name gives a salt, the structure may show the parent alone.
Field pIC50 (float): negative decimal logarithm of the concentration in molar.

Notebook: COc1cc(C(=O)NCc2cc(F)cc(C(F)(F)F)c2)ccc1-n1cnc(C)c1 , pIC50 read as 6.43

Notebook: COc1cc(C(=O)NCC2(c3cccc(C(F)(F)F)c3)CCOCC2)ccc1-n1cnc(C)c1 , pIC50 read as 6.12

Notebook: COc1cc(C(=O)NCc2cccc(Oc3ccccc3)c2)ccc1-n1cnc(C)c1 , pIC50 read as 6.45

Notebook: COc1cc(C(=O)NCc2ccc(Cl)c(Cl)c2)ccc1-n1cnc(C)c1 , pIC50 read as 6.39

Notebook: COc1cc(C(=O)NCc2nc(-c3ccc(Cl)cc3)no2)ccc1-n1cnc(C)c1 [Example 45, formic acid salt] , pIC50 read as 6.14

Notebook: COc1cc(C(=O)NCc2csc(-c3ccc(Cl)cc3)n2)ccc1-n1cnc(C)c1 , pIC50 read as 6.51

Notebook: COc1cccc(C2(CNC(=O)c3ccc(-n4cnc(C)c4)c(OC)c3)CCCC2)c1 , pIC50 read as 6.39

Notebook: COc1cc(C(=O)NCCc2c[nH]c3ccc(Cl)cc23)ccc1-n1cnc(C)c1 , pIC50 read as 6.71

Notebook: COc1cc(C(=O)NCc2ccccc2OC(F)(F)F)ccc1-n1cnc(C)c1 , pIC50 read as 6.33

Notebook: COc1cc(C(=O)NCCc2c[nH]c3ccc(Br)cc23)ccc1-n1cnc(C)c1 , pIC50 read as 6.60

Notebook: COc1cc(C(=O)N(Cc2cc(C(C)C)ccc2C)C2CC2)ccc1-n1cnc(C)c1 , pIC50 read as 6.73

Notebook: COc1cc(C(=O)NCc2sc3ccccc3c2Cl)ccc1-n1cnc(C)c1 , pIC50 read as 6.37

Notebook: COc1cc(C(=O)N(C)Cc2ccc3ccccc3c2)ccc1-n1cnc(C)c1 , pIC50 read as 6.01

Notebook: COc1cc(C(=O)NC(C)c2ccc3[nH]ccc3c2)ccc1-n1cnc(C)c1 (centres unmarked) , pIC50 read as 6.18

Notebook: COc1cc(C(=O)NCCc2cccc(C(F)(F)F)c2)ccc1-n1cnc(C)c1 , pIC50 read as 6.36

Notebook: COc1cc(C(=O)NC2(Cc3cccc(Cl)c3)CC2)ccc1-n1cnc(C)c1 , pIC50 read as 6.23

Notebook: COc1cc(C(=O)NCCc2cccc(Cl)c2)ccc1-n1cnc(C)c1 , pIC50 read as 6.20

Notebook: COc1ccc(C2(CNC(=O)c3ccc(-n4cnc(C)c4)c(OC)c3)CCCC2)cc1 , pIC50 read as 6.15

Notebook: COc1cc(C(=O)NCc2sc3c(F)ccc(F)c3c2Cl)ccc1-n1cnc(C)c1 , pIC50 read as 6.46

Notebook: COc1cc(C(=O)NC2(c3ccc(Cl)cc3)CC2)ccc1-n1cnc(C)c1 , pIC50 read as 6.31

* * *

Test system: production of amyloid beta protein Aβ(1-42) in human WT-APP overexpressing CHO cells;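 note: Aβ(1-42) released into conditioned medium captured by ELISA after roughly 24 h compound exposure, vehicle and inhibitor controls defining maximal and minimal inhibition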
Conditions: read-out: Aβ 42 IC50; Geometric mean of 2-8 determinations; human WT-APP overexpressing CHO cells
result.type: pIC50
Field pIC50 (float): negative decimal logarithm of the concentration in molar.

Notebook: COc1cc(C(=O)NCc2cc3ccccc3s2)ccc1-n1cnc(C)c1 , pIC50 read as 6.25

Notebook: COc1cc(C(=O)NCc2ccc(F)c(C(F)(F)F)c2)ccc1-n1cnc(C)c1 , pIC50 read as 6.39

Notebook: COc1cc(C(=O)NCCc2nc3cccc(Cl)c3o2)ccc1-n1cnc(C)c1 , pIC50 read as 6.38

Notebook: COc1cc(C(=O)NCC2(c3ccccc3)CCCC2)ccc1-n1cnc(C)c1 , pIC50 read as 6.76

Notebook: COc1cc(C(=O)NC(C)(C)c2cccc(C(F)(F)F)c2)ccc1-n1cnc(C)c1 , pIC50 read as 6.21

Notebook: COc1cc(C(=O)NC2CCc3ccccc3C2)ccc1-n1cnc(C)c1 (stereo not shown) , pIC50 read as 6.10

Notebook: COc1cc(C(=O)NC(C)(C)c2ccc(F)c(F)c2)ccc1-n1cnc(C)c1 , pIC50 read as 6.10
